Test system: HS 578T breast
EXPERIMENT_NOTES: NCI-60 one-dose screen, 48 h
TEST_PARAMETERS: 10 µM unless noted
About 83,000 compounds went through this panel and 20% of them were active in at least one assay; those are over-represented in the sample as a whole. Activity calls are given as the source filed them. How the source made its calls: active means growth percent below 10; inactive means the rest.
Valid outcomes are listed here; reply with one: class 1 for active, class 0 for inactive

# count of solved cases: 5
CCCCCCCCCCCCCCCCOC(=O)c1c(C)[nH]c(/C=C2\N=C(c3ccc[nH]3)C=C2OC)c1C = class 0
CN1CCCc2cc(/C=C3/SC(=S)N(CCc4ccc(O)cc4)C3=O)ccc21 = class 0
CCOC(=O)c1c2c(n3c1NCC3)-c1ccccc1C2=O = class 0
Cc1cccc(N2CCN(C(=S)c3ccc4c(c3)OCO4)CC2)c1 = class 1
COc1ccc(C2C3=C(COC3=O)N(CCO)c3cc4c(cc32)OCCO4)cc1OC (centres undefined) = class 1

# evaluate next
Enquiry: Please state the recorded outcome for this compound: "COc1ccc2nc3ccccc3c(NCc3ccccc3)c2c1"
Return: class 0
